Each entry below carries its reported pIC50.
- system_tested: Asp-2 (Homo sapiens, UniProt P56817)
- Sequence (P56817 46-501): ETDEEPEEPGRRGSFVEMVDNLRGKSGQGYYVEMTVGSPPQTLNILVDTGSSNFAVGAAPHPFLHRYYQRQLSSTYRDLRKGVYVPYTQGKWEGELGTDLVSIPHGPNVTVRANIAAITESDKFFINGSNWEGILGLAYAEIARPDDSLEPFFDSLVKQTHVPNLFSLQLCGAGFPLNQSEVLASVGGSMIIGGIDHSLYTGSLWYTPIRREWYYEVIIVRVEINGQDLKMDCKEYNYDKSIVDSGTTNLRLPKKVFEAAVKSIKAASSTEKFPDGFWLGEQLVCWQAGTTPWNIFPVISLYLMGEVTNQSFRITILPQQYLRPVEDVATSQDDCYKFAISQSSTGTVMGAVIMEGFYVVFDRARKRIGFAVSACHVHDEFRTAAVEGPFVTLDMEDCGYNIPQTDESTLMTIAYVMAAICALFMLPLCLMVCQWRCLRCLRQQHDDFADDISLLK
- assay_remarks: Asp-2 Inhibitory Assay (FAM-[SEVNLDAEFK]-TAMRA substrate cleavage, fluorescence)
- Assay type: biochemical
- run_conditions: Assay (I); range given for a group of Examples; read-out: range of inhibition (Asp-2)
pIC50: −log10 of the molar value.

Examples from the recorded data:
In [3]: df
Out[3]:
                                   compound  value_reported
0  C[C@H](C[C@H](O)[C@H](Cc1ccccc1)NC(=O)c1cc(N2CCCC2=O)cc(N2CCCC2=O)c1F)C(=O)NC1CCC(C(C)(C)C)CC1 (stereo partly drawn)    7.52 to 8.70
1  CC(C)Oc1cc(C(=O)N[C@@H](Cc2ccccc2)[C@@H](O)C[C@@H](C)C(=O)NC2CCC2)cc(N2CCCC2=O)c1    7.52 to 8.70

From here, focus on the item given below.
Please report the measured pIC50 for CC(C)Oc1cc(C(=O)N[C@@H](Cc2ccccc2)[C@@H](O)C[C@@H](C)C(=O)NC2CC3CCC2C3)cc(N2CCCC2=O)c1 (stereo partly drawn)
7.52 to 8.70

----------
- system_tested: UniProt P07339
- assay_remarks: Cathepsin D Inhibitory Assay (FAM-SEVNLDAEFK-TAMRA substrate cleavage, fluorescence)
- Assay type: biochemical
- run_conditions: Assay (III), pH 4.5, 1 h room temperature; read-out: Cat. D IC50
value_type: IC50 (nM)
Write it as a number; the unit nM goes unstated.

>>> df
                                   molecule   system_tested  value_type  value_reported
0  C=CCOc1cc(C(=O)N[C@@H](Cc2ccccc2)[C@@H](O)C[C@@H](C)C(=O)NCCC(C)(C)C)cc(N2CCCC2=O)c1  UniProt P07339        IC50            2900
1  C[C@H](C[C@H](O)[C@H](Cc1ccccc1)NC(=O)c1ccc(F)c(N2CCCC2=O)c1)C(=O)NCCC(C)(C)C (stereo in doubt) [Example E1]  UniProt P07339        IC50           13000

Please report the measured IC50 for "CCCOc1cc(C(=O)N[C@@H](Cc2ccccc2)[C@@H](O)C[C@@H](C)C(=O)NCCC(C)(C)C)cc(N2CCCC2=O)c1"
1800

----------
Each entry below carries its reported IC50.
- system_tested: Cathepsin D (Homo sapiens, UniProt P07339)
- Sequence (P07339 65-412, species assumed): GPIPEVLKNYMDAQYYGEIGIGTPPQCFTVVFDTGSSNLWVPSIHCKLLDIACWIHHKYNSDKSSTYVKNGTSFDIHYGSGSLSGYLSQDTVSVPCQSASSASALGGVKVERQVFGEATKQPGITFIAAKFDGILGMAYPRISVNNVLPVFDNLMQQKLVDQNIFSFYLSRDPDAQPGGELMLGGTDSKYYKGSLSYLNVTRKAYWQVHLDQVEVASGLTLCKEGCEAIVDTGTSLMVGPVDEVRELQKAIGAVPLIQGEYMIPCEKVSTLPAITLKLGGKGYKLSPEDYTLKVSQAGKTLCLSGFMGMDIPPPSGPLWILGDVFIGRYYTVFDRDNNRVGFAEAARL
- assay_remarks: Cathepsin D Inhibitory Assay (FAM-SEVNLDAEFK-TAMRA substrate cleavage, fluorescence)
- Type: biochemical
- run_conditions: Assay (III); range given for a group of Examples; read-out: range of inhibition (CatD)

Examples from the recorded data:
molecule	IC50
CC(C)Oc1cc(C(=O)N[C@@H](Cc2ccccc2)[C@@H](O)C[C@@H](C)C(=O)NC2CC3CCC2C3)cc(N2CCCC2=O)c1 (stereo partly drawn) [Example E14]	0.34 to 3 µM
CC(C)Oc1cc(C(=O)N[C@@H](Cc2ccccc2)[C@@H](O)C[C@@H](C)C(=O)NC2CCC2)cc(N2CCCC2=O)c1 [Example E26]	0.34 to 3 µM

From here, focus on the item given below.
Please report the measured IC50 for C[C@H](C[C@H](O)[C@H](Cc1ccccc1)NC(=O)c1cc(N2CCCC2=O)cc(N2CCCC2=O)c1)C(=O)NC1CC2CCC1C2 (stereo partly drawn) [Example E8]
0.34 to 3 µM
